IC50: recorded values
subject-of-test: PTP-1B (Homo sapiens)
Construct: PTP-1B (purified, 1 mg/mL) as a 1:250 dilution
Sequence (P18031 1-321 limits assumed): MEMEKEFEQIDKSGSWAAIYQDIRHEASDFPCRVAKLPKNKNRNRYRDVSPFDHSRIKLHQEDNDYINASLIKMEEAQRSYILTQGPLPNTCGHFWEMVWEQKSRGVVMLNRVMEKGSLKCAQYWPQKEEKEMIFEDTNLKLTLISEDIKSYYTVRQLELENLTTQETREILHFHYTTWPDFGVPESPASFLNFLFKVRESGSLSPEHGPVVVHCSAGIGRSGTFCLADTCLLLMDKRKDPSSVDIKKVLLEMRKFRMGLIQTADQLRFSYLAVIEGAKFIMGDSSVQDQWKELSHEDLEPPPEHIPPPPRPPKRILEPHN
test-details: pNPP tyrosine phosphatase inhibition assay, PTP-1B
Assay type: biochemical
study-conditions: pNPP assay, PTP-1B; read-out: Activity Class (IC50 ranges)
metric: IC50

> print(dat)
                                    compound          reported
 1  O=P(O)(O)C(F)(F)c1ccc(CN(Cc2ccccc2)Cc2ccc(C(F)(F)P(=O)(O)O)cc2)cc1        > 25000 nM
 2  O=P(O)(O)C(F)(F)c1ccc(CN(Cc2ccc(C(F)(F)P(=O)(O)O)cc2)S(=O)(=O)c2ccccc2C(F)(F)F)cc1     250 to 499 nM
 3  COc1ccccc1S(=O)(=O)N(Cc1ccc(C(F)(F)P(=O)(O)O)c(Cl)c1)C(Cc1ccccc1)c1ccccc1 (stereo not drawn)  2500 to 25000 nM
 4  O=P(O)(O)C(F)(F)c1ccc(CN(Cc2ccc(C(F)(F)P(=O)(O)O)cc2)S(=O)(=O)c2ccc(-c3ccccc3)cc2)cc1     250 to 499 nM
 5  O=P(O)(O)C(F)(F)c1ccc(CN(Cc2ccc(Cl)c(Cl)c2)S(=O)(=O)c2ccc(Oc3ccccc3)cc2)cc1Br     250 to 499 nM
 6  COc1ccccc1S(=O)(=O)N(Cc1ccc(C#N)cc1)Cc1ccc(NC(=O)C(=O)O)c(C(=O)O)c1        > 25000 nM
 7  COc1ccccc1S(=O)(=O)N(Cc1ccc(-c2cccc(C#N)c2)cc1)Cc1ccc(C(F)(F)P(=O)(O)OC)c(Cl)c1  2500 to 25000 nM
 8  COc1ccccc1S(=O)(=O)N(Cc1ccc(C#N)cc1)Cc1ccc(CC(C(=O)O)C(=O)O)cc1        > 25000 nM
 9  COc1ccccc1S(=O)(=O)N(Cc1cccc(-c2cccc(S(C)(=O)=O)c2)c1)Cc1ccc(C(F)(F)P(=O)(O)O)c(Cl)c1     250 to 499 nM
10  CS(=O)(=O)c1cccc(-c2ccc(S(=O)(=O)N(Cc3ccc(C#N)cc3)Cc3ccc(C(F)(F)P(=O)(O)O)c(Cl)c3)cc2)c1     250 to 499 nM
11  O=C(c1ccccc1)N(Cc1ccc(C(F)(F)P(=O)(O)O)cc1)Cc1ccc(C(F)(F)P(=O)(O)O)cc1  2500 to 25000 nM
12  O=C(O)c1ccc(CN(Cc2ccc(C(=O)O)c(Br)c2)S(=O)(=O)c2ccccc2)cc1        > 25000 nM
13  COc1ccccc1S(=O)(=O)N(Cc1ccc(OCc2ccccc2)cc1)Cc1ccc(C(F)(F)P(=O)(O)O)c(Cl)c1     250 to 499 nM
14  O=P(O)(O)C(F)(F)c1ccc(CN(Cc2ccc(C(F)(F)P(=O)(O)O)c(Br)c2)S(=O)(=O)c2ccccc2)cc1           < 99 nM
15  O=P(O)(O)C(F)(F)c1ccc(CN(Cc2ccc(Cl)c(Cl)c2)S(=O)(=O)c2ccccc2)cc1Br     250 to 499 nM
16  COC(=O)c1ccc(-c2ccc(CN(Cc3ccc(C(F)(F)P(=O)(O)O)c(Cl)c3)S(=O)(=O)c3ccccc3OC)cc2)cc1F     100 to 249 nM
17  COc1ccccc1S(=O)(=O)N(Cc1ccc(C(F)(F)P(=O)(O)O)c(Cl)c1)Cc1ccccc1-c1ccccc1     100 to 249 nM
18  COc1ccccc1S(=O)(=O)N(Cc1ccc(C#N)cc1)Cc1ccc(N(S(=O)(=O)C(F)(F)F)S(=O)(=O)C(F)(F)F)cc1        > 25000 nM
19  O=P(O)(O)C(F)(F)c1ccc(CN(Cc2ccc(C(F)(F)P(=O)(O)O)cc2)S(=O)(=O)CCc2ccccc2)cc1     250 to 499 nM
20  COc1ccccc1S(=O)(=O)N(Cc1ccc(S(C)(=O)=O)cc1)Cc1ccc(OCC(=O)O)c(C(=O)O)c1        > 25000 nM
21  O=P(O)(O)C(F)(F)c1ccc(CN(Cc2ccc(C(F)(F)P(=O)(O)O)cc2)S(=O)(=O)c2cccc(Oc3ccccc3)c2)cc1     250 to 499 nM
22  O=P(O)(O)C(F)(F)c1ccc(CN(c2ccc(Cl)c(Cl)c2)S(=O)(=O)c2ccccc2)cc1Br     250 to 499 nM
23  COC(=O)c1ccc(CN(Cc2ccc(C(F)(F)P(=O)(O)O)c(Cl)c2)S(=O)(=O)c2ccccc2)cc1     250 to 499 nM
24  O=C(O)CCc1ccc(S(=O)(=O)N(Cc2ccc(Cl)c(Cl)c2)Cc2ccc(C(F)(F)P(=O)(O)O)c(Br)c2)cc1     100 to 249 nM
25  O=P(O)(O)C(F)(F)c1ccc(CN(Cc2ccc(C(F)(F)P(=O)(O)O)cc2)S(=O)(=O)c2ccc(Cl)cc2)cc1     250 to 499 nM
26  COc1ccccc1S(=O)(=O)N(Cc1ccc(S(C)(=O)=O)cc1)Cc1ccc(C(F)(F)P(=O)(O)O)c(Br)c1     250 to 499 nM
27  COc1ccccc1S(=O)(=O)N(Cc1ccc(-c2ccc(-c3nn[nH]n3)cc2)cc1)Cc1ccc(C(F)(F)P(=O)(O)O)c(Cl)c1           < 99 nM
